Here is a set of compounds with reported IC50 for Glucagon receptor (Homo sapiens, UniProt P47871), compiled from the literature.
measured metric: IC50 (nM)

Worked set:
>  <compound>
CCCC(c1ccc(C(=O)NCCC(=O)O)cc1)C(c1ccc(C)cc1)c1ccc(F)c2ccccc12 (stereo not shown)

>  <experimental system>
Glucagon receptor (Homo sapiens, UniProt P47871)

>  <IC50 / nM>
4.3

$$$$
>  <compound>
CCCC(c1ccc(C(=O)NCCC(=O)O)cc1)C(c1ccc(Cl)cc1)c1ccc2nc(OC)ccc2c1 (stereo not shown)

>  <experimental system>
Glucagon receptor (Homo sapiens, UniProt P47871)

>  <IC50 / nM>
1.8

$$$$
>  <compound>
CCCC(c1ccc(C(=O)NCCC(=O)O)cc1)C(c1ccc(Cl)cc1)c1ccc2cc(SC)ccc2c1 (stereo not shown)

>  <experimental system>
Glucagon receptor (Homo sapiens, UniProt P47871)

>  <IC50 / nM>
0.83

$$$$

P = CS(=O)(=O)c1cc(NC(=O)N(Cc2ccc(C(=O)NCCC(=O)O)cc2)c2ccc(C3=CCCCC3)cc2)ccc1OC(F)(F)F
Q = CCCC(c1ccc(C(=O)NCCC(=O)O)cc1)C(c1ccc(Cl)c(Cl)c1)c1ccnc2c(C)cc(Cl)cc12 (stereo not shown)
Task for the reader: decide whether P or Q has the larger IC50. # answer = label of selected item P
(P: 9 nM, Q: 0.3 nM)

P = CCC[C@H](c1ccc(C(=O)NCCC(=O)O)cc1)C(c1ccc(Cl)cc1)c1ccc2cc(OC)ccc2c1 (stereo partly shown)
Q = CCC[C@H](c1ccc(C(=O)NCCC(=O)O)cc1)C(c1ccc(OC(F)(F)F)cc1)c1csc2c(C#N)cc(C)cc12 (stereo partly shown)
Field: lower IC50 | Options: P / Q # answer = label of selected item Q
(Q: 0.2 nM, P: 0.85 nM)
